assay: Vero cells viability qHTS for Zika virus inhibitors (AID 1347167); details: cytotoxicity counter-screen (Zika); series mostly up to 45.9 µM
Results filed as inconclusive are left out. Calls of active or inactive are those of the source. Calls follow the shape of the dose curve; as a rule, active = well fitted cell-killing curve with a large enough effect; inconclusive = small, poorly fitted or top-dose-only effect; inactive = flat fitted curve, though single readings scatter.
Outcome codes: active, inactive

# molecule, labelClass
records = [
    ("CC(C)C[C@H]1C(=O)N2CCC[C@H]2[C@]2(O)O[C@](NC(=O)[C@@H]3C=C4c5cccc6[nH]c(Br)c(c56)C[C@H]4N(C)C3)(C(C)C)C(=O)N12", "inactive"),
    ("COc1c(C)c2c(c(O)c1C/C=C(\\C)CCC(=O)O)C(=O)OC2", "inactive"),
    ("Nc1nc2ncc(CNc3ccc(C(=O)N[C@@H](CCC(=O)O)C(=O)O)cc3)nc2c(=O)[nH]1", "inactive"),
    ("CCCCC(CC)CN=C(N)NC(N)=NCCCCCCN=C(N)NC(N)=NCC(CC)CCCC (stereo not given)", "active"),
    ("CC(C)(C)CC(C)(C)c1ccc(OCCOCC[N+](C)(C)Cc2ccccc2)cc1", "inactive"),
]

====

experiment: qHTS of pediatric cancer cell lines to identify multiple opportunities for drug repurposing: Primary screen for Rh18 cells (AID 1347102); settings: Rh18 rhabdomyosarcoma viability, CellTiter-Glo luminescence, 48 h; series mostly up to 46 µM; also: nearly all actives have a fitted effect of over 65% in size; also: potency is read from the fitted curve at half-maximal effect
Results filed as inconclusive are left out. Activity calls are given as the source filed them. The call rests on the fitted dose curve; in most records, active means well fitted cell-killing curve with a large enough effect; inconclusive means small, poorly fitted or top-dose-only effect; inactive means flat fitted curve, though single readings scatter.

# smilesCode, Potency
measured = [
    ("Cc1cc(N)c2cc(NC(=O)Nc3ccc4nc(C)cc(N)c4c3)ccc2n1", "inactive"),
    ("O=c1[nH]c(=O)n([C@H]2CCCO2)cc1F", "inactive"),
    ("COc1cccc2c1C(=O)c1c(O)c3c(c(O)c1C2=O)C[C@@](O)(C(=O)CO)C[C@@H]3O[C@H]1C[C@H](N)[C@H](O)[C@H](C)O1", "1.88 µM (active)"),
    ("CC(=O)Oc1ccc(C(=C2CCCCC2)c2ccc(OC(C)=O)cc2)cc1", "inactive"),
    ("Cc1cc(=O)n(-c2ccccc2)n1C", "inactive"),
]

====

assay: qHTS for Inhibitors of ATXN expression: Validation (AID 588378); details: cell-based ATXN2 expression reporter assay, luminescence; series mostly up to 57.1 µM; also: nearly all actives have a fitted effect of over 75% in size; also: potency is read from the fitted curve at half-maximal effect
Inconclusive results are not listed. The source made the active and inactive calls. Calls come from the whole dose curve; as a rule, active = well fitted inhibition curve with a large enough effect; inconclusive = small, poorly fitted or top-dose-only effect; inactive = no such curve, though single readings can be large or run the other way.

# compound, Potency
measured = [
    ("C[N+]1(CCCCC[N+]2(C)CCCC2)CCCC1", "inactive"),
    ("CNCCC=C1c2ccccc2CCc2ccccc21", "15.8 µM (active)"),
    ("O=C(O)c1cc2cc(Cc3cccnc3)ccc2o1", "inactive"),
    ("CCCC1O[C@@H]2C[C@H]3[C@@H]4CCC5=CC(=O)C=C[C@]5(C)[C@H]4[C@@H](O)C[C@]3(C)[C@]2(C(=O)CO)O1 (stereo partly specified)", "inactive"),
    ("CC(C)COC(=O)OCN1C(=O)CN(CCN2CC(=O)N(COC(=O)OCC(C)C)C(=O)C2)CC1=O", "inactive"),
    ("COc1cc(NS(C)(=O)=O)ccc1Nc1c2ccccc2nc2ccccc12", "0.355 µM (active)"),
]

====

target: Atrial natriuretic peptide receptor 1 (Homo sapiens) (UniProt P16066); assay: Natriuretic polypeptide receptor (hNpr1) antagonism - Pilot screen (AID 1347049); settings: hNpr1 cells, antagonist mode cGMP read-out; series mostly up to 57.5 µM;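 also: HEK293 cells with hNpr1 and GloSensor cGMP luciferase stimulated by 0.1 nM hNppA; agonist-evoked cGMP luminescence read 20 min after hNppA addition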
Sequence (P16066 whole entry, looked up): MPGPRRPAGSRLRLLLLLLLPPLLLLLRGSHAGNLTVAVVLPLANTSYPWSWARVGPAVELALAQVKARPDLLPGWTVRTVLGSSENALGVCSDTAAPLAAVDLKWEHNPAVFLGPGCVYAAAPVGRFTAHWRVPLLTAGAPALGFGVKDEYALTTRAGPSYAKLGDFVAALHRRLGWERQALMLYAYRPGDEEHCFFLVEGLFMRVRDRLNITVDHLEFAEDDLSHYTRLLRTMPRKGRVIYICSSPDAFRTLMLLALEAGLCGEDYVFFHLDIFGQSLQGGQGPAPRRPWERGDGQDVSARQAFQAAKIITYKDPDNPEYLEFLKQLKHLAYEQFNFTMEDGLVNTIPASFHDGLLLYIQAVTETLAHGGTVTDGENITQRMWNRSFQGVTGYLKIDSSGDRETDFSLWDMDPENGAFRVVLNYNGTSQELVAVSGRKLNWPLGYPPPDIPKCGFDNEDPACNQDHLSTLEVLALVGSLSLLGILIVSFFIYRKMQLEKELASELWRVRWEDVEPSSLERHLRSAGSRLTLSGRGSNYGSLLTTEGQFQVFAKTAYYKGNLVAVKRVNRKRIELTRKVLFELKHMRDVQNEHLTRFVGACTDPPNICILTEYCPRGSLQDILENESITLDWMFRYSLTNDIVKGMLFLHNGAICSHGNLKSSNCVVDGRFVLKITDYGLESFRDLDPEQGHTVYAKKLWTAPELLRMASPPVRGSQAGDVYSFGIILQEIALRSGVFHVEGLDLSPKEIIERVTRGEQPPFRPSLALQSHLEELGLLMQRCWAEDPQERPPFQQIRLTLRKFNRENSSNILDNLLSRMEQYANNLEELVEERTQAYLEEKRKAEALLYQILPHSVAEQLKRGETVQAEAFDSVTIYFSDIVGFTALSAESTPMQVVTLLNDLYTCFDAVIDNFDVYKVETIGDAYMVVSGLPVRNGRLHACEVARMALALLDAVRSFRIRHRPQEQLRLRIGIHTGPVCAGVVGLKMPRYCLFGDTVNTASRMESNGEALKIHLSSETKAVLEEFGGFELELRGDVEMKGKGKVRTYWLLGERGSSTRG
Results filed as inconclusive are left out. Activity calls are given as the source filed them. Calls come from the whole dose curve.
readoutLabel: outcome

# smilesCode, readoutLabel, resultValue
rows = [
    ("Nc1cc(Cl)c(NC2=NCCN2)c(Cl)c1", "outcome", "inactive"),
    ("C[C@@H]1C(=O)NC2=Nc3cccc(Cl)c3CN21", "outcome", "inactive"),
    ("CCCn1c(=O)[nH]c(=O)c2[nH]cnc21", "outcome", "inactive"),
]

# credit: PubChem BioAssay (NCATS)
